Numbers sourced from patent US7332476B2.

Assay: In vivo pharmacokinetic study in rats, whole lung (IV and PO)
Conditions: male, Sprague-Dawley, 5 mg/kg; rat, IV, whole lung; read-out: t1/2, IV Lung (converted)
Under this convention, 1 denotes half-life strictly below 3 h and 0 denotes half-life at or above 3 h.

* C=C[C@]12OC(=O)N(CCCCn3cnc(-c4ccc(Cl)nc4)c3)[C@@H]1[C@@H](C)C(=O)[C@H](C)C[C@](C)(OC)[C@H](OC1O[C@H](C)C[C@H](N(C)C)[C@H]1O)[C@@H](C)C(=O)[C@@H](C)C(=O)O[C@@H]2CC (stereo partly drawn) | 1
* C=C[C@]12OC(=O)N(CCCCn3cnc(-c4ccc(C)nc4)c3)[C@@H]1[C@@H](C)C(=O)[C@H](C)C[C@](C)(OC)[C@H](OC1O[C@H](C)C[C@H](N(C)C)[C@H]1O)[C@@H](C)C(=O)[C@@H](C)C(=O)O[C@@H]2CC (stereo partly drawn) | 0
* C=C[C@]12OC(=O)N(CCCCn3cnc(-c4ccc(OC)nc4)c3)[C@@H]1[C@@H](C)C(=O)[C@H](C)C[C@](C)(OC)[C@H](OC1O[C@H](C)C[C@H](N(C)C)[C@H]1O)[C@@H](C)C(=O)[C@@H](C)C(=O)O[C@@H]2CC (stereo partly drawn) | 0
* CC[C@H]1OC(=O)[C@H](C)C(=O)[C@H](C)[C@@H](O[C@@H]2O[C@H](C)C[C@H](N(C)C)[C@H]2O)[C@](C)(OC)C[C@@H](C)C(=O)[C@H](C)[C@H]2N(CCCCn3cnc(-c4cccnc4)c3)C(=O)O[C@]12C [Telithromycin, telithromycin, reference compound] | 1
* C=C[C@]12OC(=O)N(CCCCn3cnc(-c4cnccc4Cl)c3)[C@@H]1[C@@H](C)C(=O)[C@H](C)C[C@](C)(OC)[C@H](OC1O[C@H](C)C[C@H](N(C)C)[C@H]1O)[C@@H](C)C(=O)[C@@H](C)C(=O)O[C@@H]2CC (stereo partly drawn) | 1
* CC[C@H]1OC(=O)[C@@](C)(F)C(=O)[C@H](C)[C@@H](OC2O[C@H](C)C[C@H](N(C)C)[C@H]2O)[C@@](C)(OC)C[C@@H](C)C(=O)[C@H](C)[C@H]2N(CCCCn3cnc(-c4ccc(C)nc4)c3)C(=O)O[C@]12CC (stereo partly drawn) | 0

* * *

System: Enterococcus faecalis Enfa_29212
Assay: MIC, broth microdilution (NCCLS)
Format: cell-based
Conditions: Table 5, Strain ID C (Table 4): E. faecalis Enfa_29212; in µg/mL (unit assumed)
ENDPOINT: MIC

• CC[C@H]1OC(=O)[C@H](C)C(=O)[C@H](C)[C@@H](OC2O[C@H](C)C[C@H](N(C)C)[C@H]2O)[C@@](C)(OC)C[C@@H](C)C(=O)[C@H](C)[C@H]2NC(=O)O[C@@H]21 (stereo partly shown) [Compound 4266] = 1.56
• CC[C@H]1OC(=O)[C@H](C)C(=O)[C@H](C)[C@@H](OC2O[C@H](C)C[C@H](N(C)C)[C@H]2O)[C@@](C)(OC)C[C@@H](C)C(=O)[C@H](C)[C@H]2N(CCCCn3cnc(-c4cccnc4)c3)C(=O)O[C@]12CC (stereo partly shown) [Compound 7280] = 0.1
• CC[C@H]1OC(=O)[C@H](C)C(=O)[C@H](C)[C@@H](OC2O[C@H](C)C[C@H](N(C)C)[C@H]2O)[C@@](C)(OC)C[C@@H](C)C(=O)[C@H](C)[C@@H]2[C@@H]1OC(=O)N2CCCCn1cnc2ncccc21 (stereo partly shown) [Compound 4713] = 0.1
• CC[C@H]1OC(=O)[C@H](C)C(=O)[C@H](C)[C@@H](OC2O[C@H](C)C[C@H](N(C)C)[C@H]2O)[C@@](C)(OC)C[C@@H](C)C(=O)[C@H](C)[C@@H]2[C@@H]1OC(=O)N2CCCCn1ccc2ccccc21 (stereo partly shown) [Compound 4717] = 0.1
